- study_system: pre-pro-insulin glargine
reported_metric: desArg

• trypsin variant SEQ ID NO: 83 (protein) IVGGYTCAANSIPYQVSLNSGSHRCGGSLINSQWVVSAAHCYKPRIQVRLGEHNIHVLEGNEQFINAAKIITHPNFNPNTLDNDIMLIKLSSPATLNSNVATVSLPTSCAAAGTECLISGWGNTSSSGSSMPSLLQCLKAPVLSDSSCKSSYPGQITGNMICVGFLEGGKDACQGDSGGPVVCNGQLQGIVSSGYGCAQKNKPGVYTKVCNYVNWIQQTIAAN = < 0.5 area %

Measured desArg of trypsin variant SEQ ID NO: 36 (protein) IVGGYTCAANSIPYQVSLNSGSHRCGGSLINSQWVVSAAHCYKSRIQVRLGEHNIDVLEGNEQFINAAKIITHPNFNGNTLDNDIMLIKLSSPATLNSRVATVSLPRSCAAAGTECLISGWGNTKSSGSSMPSLLQCLKAPVLSDSSCKSSYPGQITGNMICVGFLEGGKDACQGDSGGPVVCNGQLQGIVSSGYGCAQKNKPGVYTKVCNYVNWIQQTIAAN : < 0.5 area %

The protein listed as trypsin variant SEQ ID NO: 119 (protein) IVGGYTCAANSIPYQVSLNSGSHRCGGSLINSQWVVSAAHCYKPRIQVRLGEHNIHVLEGNEQFINAAKIITHPNFNGNTLDNDIMLIKLSSPATLNSAVATVSLPTSCAAAGTECLISGWGNTASSGSSMPSLLQCLKAPVLSDSSCKSSYPGQITGNMICVGFLEGGKDACQGDSGGPVVCNGQLQGIVSSGYGCAQKNKPGVYTKVCNYVNWIQQTIAAN has a reported desArg of 0.6 area %

Source listed as patent US20230303994.
